system: human Factor 7 mRNA; assay: Antisense inhibition of human Factor 7 mRNA in HepB3 cells, lipofectin, 50 nM, real-time RT-PCR; format: cell-based; settings: HepB3 cells, lipofectin, 50 nM antisense oligonucleotide, approximately 24 hours, primer probe set RTS 2927, relative to untreated control
In the oligonucleotide strings, read from the 5' end, every base follows the letter of its sugar. An asterisk marks phosphorothioate; unmarked linkages are phosphodiester. Other units and linkages are bracketed, terminal groups are in braces. A string of capitals states the bases alone. e = 2'-O-(2-methoxyethyl) (MOE); [5mC] = 5-methylcytosine; d = 2'-deoxy (DNA)
outcome measure: % Inhibition of human Factor 7 mRNA levels (%)
Numeric only. Scale: %

Quick check: % Inhibition of human Factor 7 mRNA levels on human Factor 7 mRNA, item 416569 (antisense eG*e[5mC]*e[5mC]*eT*eG*dG*dT*dG*dT*dG*d[5mC]*dA*d[5mC]*dA*d[5mC]*eA*eT*eT*eG*eT) [compound 416569] ?
12

Same read-out for 416468 (antisense eT*eG*eG*eG*eA*dG*dA*d[5mC]*d[5mC]*d[5mC]*dT*dG*dG*dT*dG*eT*eA*e[5mC]*eA*e[5mC]) [compound 416468] ?
46

Same read-out for 416450 (antisense eG*eG*eT*eT*eT*dG*d[5mC]*dT*dG*dG*d[5mC]*dA*dT*dT*dT*e[5mC]*eT*eT*eT*eT) [compound 416450] ?
49

###

The reader will find reported percent inhibition of Factor 7 mRNA, 6.25 nM values listed item by item below.
tested on: human Factor 7 mRNA; test: Dose-dependent antisense inhibition of human Factor 7 in HepB3 cells, transfection with lipofectin; assay type: cell-based; conditions: Example 2; HepB3, lipofectin, 6.25 nM, ~16 h
In the oligonucleotide strings, read from the 5' end, every base follows the letter of its sugar. An asterisk marks phosphorothioate; unmarked linkages are phosphodiester. Other units and linkages are bracketed, terminal groups are in braces. A string of capitals states the bases alone. e = 2'-O-(2-methoxyethyl) (MOE); [5mC] = 5-methylcytosine; d = 2'-deoxy (DNA)
Numeric only. Scale: %

Some solved cases for reference:
>  <substance>
407939 (antisense eT*eG*e[5mC]*eA*eG*d[5mC]*d[5mC]*d[5mC]*dG*dG*d[5mC]*dA*d[5mC]*d[5mC]*d[5mC]*eA*eG*e[5mC]*eG*eA) [compound 407939]

>  <unit abbreviation>
%

>  <recorded value>
79

$$$$
>  <substance>
407594 (antisense e[5mC]*e[5mC]*eT*eG*e[5mC]*dA*dG*d[5mC]*d[5mC]*dA*dG*dG*d[5mC]*dA*dG*e[5mC]*e[5mC]*e[5mC]*eT*eG) [compound 407594]

>  <unit abbreviation>
%

>  <recorded value>
34

$$$$
>  <substance>
407606 (antisense e[5mC]*eT*eG*eG*eT*d[5mC]*d[5mC]*dT*dT*dG*d[5mC]*dA*dG*dG*dA*eG*e[5mC]*e[5mC]*e[5mC]*e[5mC]) [compound 407606]

>  <unit abbreviation>
%

>  <recorded value>
0

$$$$

Consider now this further substance.
Could you share which percent inhibition of Factor 7 mRNA, 6.25 nM value was measured for 407900 (antisense e[5mC]*e[5mC]*e[5mC]*e[5mC]*eA*d[5mC]*dA*dA*dT*dT*d[5mC]*dG*dG*d[5mC]*d[5mC]*eT*eT*eG*eG*eG) [compound 407900] ?
58

###

The reader will find reported percent inhibition of Factor 7 mRNA, relative to untreated control cells values listed item by item below.
Tested on: human Factor 7 mRNA
Test: Dose-dependent antisense inhibition of human Factor 7 in HepB3 cells, transfection with electroporation
Format: cell-based
Settings: 100 μM, 16 hours (Example 7, Table 15)
Description: The gapmers were also transfected via electroporation and their dose-dependent inhibition of human Factor 7 mRNA was measured. […] After a treatment period of approximately 16 hours, RNA was isolated from the cells and Factor 7 mRNA levels were measured by quantitative real-time PCR. […] Factor 7 mRNA levels were adjusted according to total RNA content, as measured by RIBOGREEN®. […]
In the oligonucleotide strings, read from the 5' end, every base follows the letter of its sugar. An asterisk marks phosphorothioate; unmarked linkages are phosphodiester. Other units and linkages are bracketed, terminal groups are in braces. A string of capitals states the bases alone. e = 2'-O-(2-methoxyethyl) (MOE); [5mC] = 5-methylcytosine; d = 2'-deoxy (DNA)
Numeric only. Scale: %

Some solved cases for reference:
>  <substance>
422142 (antisense eG*eA*eG*eT*eT*d[5mC]*dT*dG*d[5mC]*dA*dG*dG*dA*dG*d[5mC]*eG*eG*e[5mC]*e[5mC]*eT) [compound 422142]

>  <recorded value>
78

$$$$
>  <substance>
422252 (antisense e[5mC]*eG*d[5mC]*d[5mC]*dG*dG*d[5mC]*dT*d[5mC]*dT*dG*d[5mC]*dT*d[5mC]*dA*eT*e[5mC]*e[5mC]*e[5mC]*e[5mC]) [compound 422252]

>  <recorded value>
80

$$$$
>  <substance>
422217 (antisense eG*eA*eG*dT*dT*d[5mC]*dT*dG*d[5mC]*dA*dG*dG*dA*dG*d[5mC]*dG*dG*e[5mC]*e[5mC]*eT) [compound 422217]

>  <recorded value>
83

$$$$

Could you share which percent inhibition of Factor 7 mRNA, relative to untreated control cells value was measured for 422150 (antisense eG*e[5mC]*eA*dT*dG*dG*dT*dG*dA*dT*dG*d[5mC]*dT*dT*d[5mC]*dT*dG*eA*eA*eT) [compound 422150] ?
83

Same read-out for 422292 (antisense eG*eT*dT*d[5mC]*dT*dG*d[5mC]*dA*dG*dG*dA*dG*d[5mC]*dG*dG*e[5mC]*e[5mC]*eT*eA*eA) [compound 422292] ?
86

Same read-out for 422183 (antisense eG*e[5mC]*eG*d[5mC]*d[5mC]*dA*d[5mC]*d[5mC]*d[5mC]*dG*d[5mC]*d[5mC]*dG*dG*d[5mC]*dT*d[5mC]*eT*eG*e[5mC]) [compound 422183] ?
71

Same read-out for 422296 (antisense e[5mC]*e[5mC]*dG*dA*dG*dT*dT*d[5mC]*dT*dG*d[5mC]*dA*dG*dG*dA*eG*e[5mC]*eG*eG*e[5mC]) [compound 422296] ?
84

Same read-out for 422228 (antisense eT*eG*d[5mC]*dA*dT*dG*dG*dT*dG*dA*dT*dG*d[5mC]*dT*dT*e[5mC]*eT*eG*eA*eA) [compound 422228] ?
83

Same read-out for 407935 (antisense eA*eT*eG*e[5mC]*eA*dT*dG*dG*dT*dG*dA*dT*dG*d[5mC]*dT*eT*e[5mC]*eT*eG*eA) [compound 407935] ?
87

###

tested on: human Factor 7 mRNA; experiment: Inhibition of human Factor 7 mRNA by 2-10-2 MOE shortmers in HepB3 cells, electroporation, 1,000 nM; format: cell-based; conditions: electroporation, 1,000 nM oligonucleotide, approximately 24 hours, relative to untreated control cells
In the oligonucleotide strings, read from the 5' end, every base follows the letter of its sugar. An asterisk marks phosphorothioate; unmarked linkages are phosphodiester. Other units and linkages are bracketed, terminal groups are in braces. A string of capitals states the bases alone. e = 2'-O-(2-methoxyethyl) (MOE); [5mC] = 5-methylcytosine; d = 2'-deoxy (DNA)
outcome measure: % inhibition of human Factor 7 mRNA (%)
Numeric only. Scale: %

Some solved cases for reference:
>  <substance>
435644 (antisense eT*eG*dG*dT*d[5mC]*d[5mC]*dT*dT*dG*d[5mC]*dA*dG*eG*eA) [compound 435644]

>  <test target>
human Factor 7 mRNA

>  <recorded value>
30

$$$$
>  <substance>
435680 (antisense eG*eT*dG*d[5mC]*dT*d[5mC]*dG*d[5mC]*dT*dG*dA*dG*eG*eT) [compound 435680]

>  <test target>
human Factor 7 mRNA

>  <recorded value>
52

$$$$
>  <substance>
435660 (antisense e[5mC]*e[5mC]*dG*dT*d[5mC]*dT*dG*d[5mC]*d[5mC]*dA*dG*d[5mC]*eA*eG) [compound 435660]

>  <test target>
human Factor 7 mRNA

>  <recorded value>
58

$$$$
>  <substance>
435674 (antisense eA*eA*dA*d[5mC]*dA*dG*dT*dG*dG*dG*d[5mC]*d[5mC]*eG*e[5mC]) [compound 435674]

>  <test target>
human Factor 7 mRNA

>  <recorded value>
34

$$$$
>  <substance>
435850 (antisense e[5mC]*eT*dT*dG*dG*d[5mC]*d[5mC]*dA*dG*dT*dG*dT*eG*eG) [compound 435850]

>  <test target>
human Factor 7 mRNA

>  <recorded value>
15

$$$$
>  <substance>
435664 (antisense eT*eT*dT*dT*dT*d[5mC]*d[5mC]*dA*d[5mC]*dA*dT*dG*eG*eA) [compound 435664]

>  <test target>
human Factor 7 mRNA

>  <recorded value>
4

$$$$
>  <substance>
435826 (antisense eA*eA*dG*dT*dG*dG*d[5mC]*dT*dG*dG*d[5mC]*dT*eG*eA) [compound 435826]

>  <test target>
human Factor 7 mRNA

>  <recorded value>
27

$$$$
>  <substance>
435785 (antisense eA*eG*d[5mC]*dT*dT*d[5mC]*dT*d[5mC]*dA*d[5mC]*d[5mC]*dA*e[5mC]*eG) [compound 435785]

>  <test target>
human Factor 7 mRNA

>  <recorded value>
46

$$$$
>  <substance>
435698 (antisense e[5mC]*e[5mC]*dT*dT*dG*d[5mC]*dA*dG*dG*dA*dG*dT*e[5mC]*e[5mC]) [compound 435698]

>  <test target>
human Factor 7 mRNA

>  <recorded value>
61

$$$$
>  <substance>
435671 (antisense eT*e[5mC]*dA*d[5mC]*d[5mC]*dA*dA*d[5mC]*dA*dA*d[5mC]*dA*eG*eG) [compound 435671]

>  <test target>
human Factor 7 mRNA

>  <recorded value>
28

$$$$

Could you share which % inhibition of human Factor 7 mRNA value was measured for 435672 (antisense eA*e[5mC]*d[5mC]*d[5mC]*dA*dG*dA*dT*dG*dG*dT*dG*eT*eT) [compound 435672] ?
12

Same read-out for 435753 (antisense eA*eA*dG*dA*dG*dT*dG*d[5mC]*dA*dG*d[5mC]*dT*eT*eG) [compound 435753] ?
9

Same read-out for 435783 (antisense eA*eA*dA*d[5mC]*d[5mC]*dG*dG*d[5mC]*dA*dT*dG*d[5mC]*eG*e[5mC]) [compound 435783] ?
49

Same read-out for 435804 (antisense e[5mC]*eA*dG*dG*dG*dA*d[5mC]*dT*d[5mC]*dT*d[5mC]*dA*eG*e[5mC]) [compound 435804] ?
26
